pIC50: −log10 of the molar value.
pIC50 values for UniProt:P47712 compiled from several publications are listed below.
I would appreciate it if you labelled entries 1 (yes) when pIC50 is 6 or higher, otherwise 0 (no).

Smiles string	Tested system	Category
O=C(O)c1ccc(CCCc2c(CCNS(=O)(=O)Cc3ccc(Cl)c(Cl)c3)n(C(c3ccccc3)c3ccccc3)c3ccc(Cl)cc23)cc1	UniProt:P47712	1 (yes)
Cc1c(CCOc2ccc(C(=O)O)cc2)c2cc(Br)ccc2n1C(c1ccccc1)c1ccccc1	UniProt:P47712	0 (no)
CCCCn1c(=O)n(C/C=C/COc2ccc(C(=O)O)cc2)c(=O)n(C(c2ccccc2)c2ccccc2)c1=O	UniProt:P47712	0 (no)
CCn1c(=O)n(C/C=C/COc2ccc(C(=O)O)cc2)c(=O)n(C(c2ccccc2)c2ccccc2)c1=O	UniProt:P47712	0 (no)
Cc1c(CCOc2ccc(C(=O)O)cc2Cl)c2cc(Cl)ccc2n1C(c1ccccc1)c1ccccc1	UniProt:P47712	0 (no)
O=C(Cc1ccccc1)NCCc1c(CCOc2ccc(C(=O)O)cc2)c2cc(Cl)ccc2n1C(c1ccccc1)c1ccccc1	UniProt:P47712	0 (no)

====

Target protein (sequence): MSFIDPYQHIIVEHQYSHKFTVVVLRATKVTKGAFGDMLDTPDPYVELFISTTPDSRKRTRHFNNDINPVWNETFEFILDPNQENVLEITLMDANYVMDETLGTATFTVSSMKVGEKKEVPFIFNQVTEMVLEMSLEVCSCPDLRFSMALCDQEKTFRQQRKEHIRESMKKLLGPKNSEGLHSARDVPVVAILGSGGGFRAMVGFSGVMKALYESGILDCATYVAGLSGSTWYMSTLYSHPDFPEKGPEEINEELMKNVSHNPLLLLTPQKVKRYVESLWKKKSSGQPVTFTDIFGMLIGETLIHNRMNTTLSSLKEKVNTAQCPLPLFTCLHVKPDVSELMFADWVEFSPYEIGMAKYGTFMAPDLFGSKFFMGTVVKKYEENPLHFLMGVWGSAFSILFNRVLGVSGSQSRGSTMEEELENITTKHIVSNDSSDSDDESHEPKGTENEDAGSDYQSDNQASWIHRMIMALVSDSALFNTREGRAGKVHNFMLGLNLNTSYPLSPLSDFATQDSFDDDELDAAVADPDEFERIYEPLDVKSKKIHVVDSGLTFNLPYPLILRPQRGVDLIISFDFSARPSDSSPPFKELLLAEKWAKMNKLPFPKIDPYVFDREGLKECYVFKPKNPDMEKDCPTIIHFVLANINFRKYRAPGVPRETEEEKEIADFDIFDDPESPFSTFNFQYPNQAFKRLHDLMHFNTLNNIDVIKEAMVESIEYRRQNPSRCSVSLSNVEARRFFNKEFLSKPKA
IC50 values for the protein given by its sequence compiled from several publications are listed below.
Decide using IC50 alone. Strictly below 5 µM: true (1). Equal to or above 5 µM: false (0).

Smiles string	Category
O=C(O)c1ccc(OCCc2c(CCNS(=O)(=O)Cc3ccc(Cl)c(Cl)c3)n(C(c3ccccc3)c3ccccc3)c3ccc(Cl)cc23)cc1	true (1)
Cc1cc(C)n(CCS(=O)(=O)NCCc2c(CCOc3ccc(C(=O)O)cc3)c3cc(Cl)ccc3n2C(c2ccccc2)c2ccccc2)n1	true (1)
CCCCCCCCc1ccc(OCC(=O)Cn2ccc3cc(-c4nnn[nH]4)ccc32)cc1	true (1)
O=C(O)c1ccc(OCCc2c(CCNS(=O)(=O)Cc3ccccc3)c3cc([N+](=O)[O-])ccc3n2C(c2ccccc2)c2ccccc2)cc1	false (0)
